Recorded values, source patent US20190055322A1.

Target or system: PcrV of P. aeruginosa strain PA103 (on TTSS-induced bacteria) (Pseudomonas aeruginosa strain PA103)
Protocol notes: cell-based or functional assay
Property label: IC50 value (M), P3X63 cytotoxicity, MOI 12

| Binder | Unit text | Value measured |
| --- | --- | --- |
| Nanobody 259 (1E11-40GS-5H01) (VHH) EVQLVESGGGLVQPGGSLRLSCAASGSTRSVNPMAWFRQAPGRQREWVATISRSGYATYADSVKGRFTISGDNAKSSVYLQMNSLKPEDTAVYYCVTGTYWGQGTLVTVSSGGGGSGGGGSGGGGSGGGGSGGGGSGGGGSGGGGSGGGGSEVQLVESGGGLVQPGGSLRLSCAASGSTLDYYAIGWFRQAPGKEREGVSCTSNSGSTYYGGSVKGRFTASRDNAKNTVYLQMNSLRPEDTAVYYCVATIGCATLGGTLDVQRYYYRGQGTLVTVSS | M | 3.9e-11 |
| Nanobody 335 (5H01-40GS-1E11) (VHH) EVQLVESGGGLVQPGGSLRLSCAASGSTLDYYAIGWFRQAPGKEREGVSCTSNSGSTYYGGSVKGRFTASRDNAKNTVYLQMNSLRPEDTAVYYCVATIGCATLGGTLDVQRYYYRGQGTLVTVSSGGGGSGGGGSGGGGSGGGGSGGGGSGGGGSGGGGSGGGGSEVQLVESGGGLVQPGGSLRLSCAASGSTRSVNPMAWFRQAPGRQREWVATISRSGYATYADSVKGRFTISGDNAKSSVYLQMNSLKPEDTAVYYCVTGTYWGQGTLVTVSS | M | 6.4e-11 |
